All values here come from paper PMC11110763.

# assay: Human liver microsomal (HLM) stability
# Assay type: in vitro ADME
# conditionLabel: pooled human liver microsomes, pH 7.4
quantityName: microsomal CLint at 0.75 h, 3 µM (µL/min/mg)
Provide only the numeric value, understood in µL/min/mg.

Specify reported microsomal CLint at 0.75 h, 3 µM for the molecule shown: CCCN(CCc1ccc(O)cc1)Cc1ccc(OCc2ccccc2)cc1 [Compound 33]
161

###

# assay: Human liver microsomal (HLM) stability
# Type: in vitro ADME
# conditionLabel: pooled human liver microsomes, pH 7.4, up to 45 min incubation, read-out: HLM T½
quantityName: half-life at 0.75 h, 3 µM (min)
Provide only the numeric value, understood in min.

Specify reported half-life at 0.75 h, 3 µM for the compound shown: `CCCN(CCc1ccc(O)cc1)Cc1ccc(OCc2ccccc2)cc1`
8.62

###

# assaySystem: recombinant BChE (hBChE, E.C. 3.1.1.8) (Homo sapiens)
# Construct: purchased Sigma-Aldrich, Prague, Czech Republic
# assay: biochemical
# Assay type: biochemical
quantityName: hBChE inhibitory activity (in words)

• Clc1cccc(NCc2cccc(OCc3ccccc3)c2)c1 [Compound 13] = completely inactive
• COc1ccc(CNCc2cccc(OCc3ccccc3)c2)cc1OC [Compound 15] = completely inactive

###

# assay: PAMPA assay (BBB penetration)
# conditionLabel: PAMPA, PBS pH 7.4, n = 3
I'd appreciate it if you could supply Pe ± SEM values for the items below.

Specify reported Pe ± SEM for the compound shown: CC(CCc1ccccc1)NCc1ccc(OCc2ccccc2)cc1 (stereo not drawn) [Compound 42]
22.0 ± 4.2 ×10^−6 cm s^−1

Specify reported Pe ± SEM for the compound shown: CCCN(CCCc1ccccc1)Cc1cccc(OCc2ccccc2)c1 [Compound 25]
33.0 ± 6.8 ×10^−6 cm s^−1

Specify reported Pe ± SEM for the compound shown: CCCN(CCCc1ccccc1)Cc1ccc(OCc2ccccc2)cc1 [Compound 45]
25.0 ± 2.9 ×10^−6 cm s^−1

Specify reported Pe ± SEM for the compound shown: CCCN(CCc1ccc(O)cc1)Cc1ccc(OCc2ccccc2)cc1 [Compound 33]
11.0 ± 2.2 ×10^−6 cm s^−1

Specify reported Pe ± SEM for the compound shown: CCN(Cc1ccccc1)Cc1cccc(OCc2ccccc2)c1 [Compound 19]
36 ± 14 ×10^−6 cm s^−1

Specify reported Pe ± SEM for the compound shown: COc1ccccc1CCNCc1cccc(OCc2ccccc2)c1 [Compound 5]
6.2 ± 0.7 ×10^−6 cm s^−1

Specify reported Pe ± SEM for the compound shown: Oc1ccc(CCNCc2ccc(OCc3ccccc3)cc2)cc1 [Compound 28]
10.0 ± 0.5 ×10^−6 cm s^−1

Specify reported Pe ± SEM for the compound shown: CCN(Cc1ccc(OCc2ccccc2)cc1)C(C)CCc1ccccc1 (stereo not drawn) [Compound 46]
36.0 ± 2.0 ×10^−6 cm s^−1

Specify reported Pe ± SEM for the compound shown: c1ccc(CNCc2cccc(OCc3ccccc3)c2)cc1 [Compound 14]
9.8 ± 2.9 ×10^−6 cm s^−1

Specify reported Pe ± SEM for the compound shown: Oc1ccc(CCNCc2cccc(OCc3ccccc3)c2)cc1 [Compound 4]
14.0 ± 0.4 ×10^−6 cm s^−1

Specify reported Pe ± SEM for the compound shown: CCN(CCc1ccccc1)Cc1cccc(OCc2ccccc2)c1 [Compound 21]
21.0 ± 0.6 ×10^−6 cm s^−1

Specify reported Pe ± SEM for the compound shown: CC(CNCc1cccc(OCc2ccccc2)c1)c1ccccc1 (stereo not drawn) [Compound 18]
8.1 ± 0.6 ×10^−6 cm s^−1

###

I'd appreciate it if you could supply inhibition at 10 µM values for the items below.
# assaySystem: recombinant BChE (hBChE, E.C. 3.1.1.8) (Homo sapiens)
# Construct: purchased Sigma-Aldrich, Prague, Czech Republic
# assay: biochemical
# Format: biochemical
# conditionLabel: tested at 10 μM compound concentration; read-out: % inhibition of hBChE ± SEM
Provide only the numeric value, understood in %.

Specify reported inhibition at 10 µM for the compound shown: Oc1ccc(CCNCc2ccc(OCc3ccccc3)cc2)cc1 [Compound 28]
97

Specify reported inhibition at 10 µM for the compound shown: CCCN(CCc1ccccc1)Cc1cccc(OCc2ccccc2)c1 [Compound 22]
81

Specify reported inhibition at 10 µM for the compound shown: CCN(Cc1ccccc1)Cc1ccc(OCc2ccccc2)cc1 [Compound 43]
50

Specify reported inhibition at 10 µM for the compound shown: C=CCN(Cc1ccccc1)Cc1cccc(OCc2ccccc2)c1 [Compound 20]
36

Specify reported inhibition at 10 µM for the compound shown: c1ccc(CNCc2cccc(OCc3ccccc3)c2)cc1 [Compound 14]
92

Specify reported inhibition at 10 µM for the compound shown: CCCN(Cc1ccccc1)Cc1ccc(OCc2ccccc2)cc1 [Compound 44]
18

Specify reported inhibition at 10 µM for the compound shown: c1ccc(CCNCc2ccc(OCc3ccccc3)cc2)cc1 [Compound 37]
81

Specify reported inhibition at 10 µM for the compound shown: CCCN(Cc1ccc(OCc2ccccc2)cc1)C(C)CCc1ccccc1 (stereo not shown) [Compound 47]
93

Specify reported inhibition at 10 µM for the compound shown: CC(CCc1ccccc1)NCc1ccc(OCc2ccccc2)cc1 (stereo not shown) [Compound 42]
92

Specify reported inhibition at 10 µM for the compound shown: COc1ccccc1CCNCc1ccc(OCc2ccccc2)cc1 [Compound 29]
89

###

I'd appreciate it if you could supply pIC50 values for the items below.
# assaySystem: recombinant BChE (hBChE, E.C. 3.1.1.8) (Homo sapiens, UniProt P06276)
# Construct: purchased Sigma-Aldrich, Prague, Czech Republic
# Sequence (P06276 29-602): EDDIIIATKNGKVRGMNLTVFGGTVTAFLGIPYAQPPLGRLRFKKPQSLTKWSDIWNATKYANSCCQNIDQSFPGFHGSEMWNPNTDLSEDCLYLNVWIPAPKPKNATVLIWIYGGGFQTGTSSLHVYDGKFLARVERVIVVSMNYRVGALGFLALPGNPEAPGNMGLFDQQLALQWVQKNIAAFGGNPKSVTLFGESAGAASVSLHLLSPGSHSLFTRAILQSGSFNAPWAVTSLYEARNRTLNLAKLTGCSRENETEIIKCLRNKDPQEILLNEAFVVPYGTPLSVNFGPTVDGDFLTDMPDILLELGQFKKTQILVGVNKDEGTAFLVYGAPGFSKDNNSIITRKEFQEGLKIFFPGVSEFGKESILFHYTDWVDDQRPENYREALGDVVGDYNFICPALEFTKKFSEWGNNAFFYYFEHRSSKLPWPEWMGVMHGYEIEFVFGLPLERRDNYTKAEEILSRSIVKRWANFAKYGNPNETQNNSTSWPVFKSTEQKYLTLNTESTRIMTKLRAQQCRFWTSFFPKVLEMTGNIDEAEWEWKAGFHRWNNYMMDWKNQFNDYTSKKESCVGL
# assay: biochemical
# Assay type: biochemical
# conditionLabel: mean ± SEM of three independent measurements, each in triplicate
Conceptually, pIC50 converts a concentration in mol/L into minus its log10.

Specify reported pIC50 for the molecule shown: CCCN(Cc1ccc(OCc2ccccc2)cc1)C(C)CCc1ccccc1 (stereo not shown)
6.00

Specify reported pIC50 for the molecule shown: `c1ccc(CCCNCc2ccc(OCc3ccccc3)cc2)cc1`
6.15

Specify reported pIC50 for the molecule shown: CC(CCc1ccccc1)NCc1ccc(OCc2ccccc2)cc1 (stereo not shown)
6.30

Specify reported pIC50 for the molecule shown: `COc1ccccc1CCNCc1cccc(OCc2ccccc2)c1`
6.40

Specify reported pIC50 for the molecule shown: `c1ccc(CCCCNCc2ccc(OCc3ccccc3)cc2)cc1`
6.10

###

I'd appreciate it if you could supply IC50 at 24 h values for the items below.
# assay: in vitro
# conditionLabel: human, HepG2 hepatocellular carcinoma cells
Provide only the numeric value, understood in µM.

Specify reported IC50 at 24 h for the compound shown: CC(CNCc1cccc(OCc2ccccc2)c1)c1ccccc1 (centres unmarked)
55

Specify reported IC50 at 24 h for the compound shown: `CCCN(CCc1ccc(O)cc1)Cc1ccc(OCc2ccccc2)cc1`
93

Specify reported IC50 at 24 h for the compound shown: `COc1ccccc1CCNCc1cccc(OCc2ccccc2)c1`
52

Specify reported IC50 at 24 h for the compound shown: `Oc1ccc(CCNCc2ccc(OCc3ccccc3)cc2)cc1`
85

Specify reported IC50 at 24 h for the compound shown: `Oc1ccc(CCNCc2cccc(OCc3ccccc3)c2)cc1`
60

###

# assaySystem: recombinant BChE (hBChE, E.C. 3.1.1.8) (Homo sapiens)
# assay: biochemical
# conditionLabel: mean ± SEM of three independent measurements, each in triplicate
pIC50: −log10 of the molar value.
Could you label it 1 (yes) if measured pIC50 is 6 or higher, and 0 (no) otherwise?

Answer whether pIC50 of CC(CNCc1cccc(OCc2ccccc2)c1)c1ccccc1 (centres unmarked) is greater than or equal to 6.
1 (yes)

Answer whether pIC50 of `COc1cccc(CCNCc2cccc(OCc3ccccc3)c2)c1` is greater than or equal to 6.
0 (no)

Answer whether pIC50 of `Clc1cccc(NCc2cccc(OCc3ccccc3)c2)c1` is greater than or equal to 6.
0 (no)

Answer whether pIC50 of `c1ccc(CCCNCc2cccc(OCc3ccccc3)c2)cc1` is greater than or equal to 6.
1 (yes)

Answer whether pIC50 of `CCCN(CCCc1ccccc1)Cc1cccc(OCc2ccccc2)c1` is greater than or equal to 6.
1 (yes)

Answer whether pIC50 of `COc1ccc(CCNCc2cccc(OCc3ccccc3)c2)cc1` is greater than or equal to 6.
0 (no)

Answer whether pIC50 of `CCN(CCCc1ccccc1)Cc1cccc(OCc2ccccc2)c1` is greater than or equal to 6.
1 (yes)

Answer whether pIC50 of `CCN(CCc1ccccc1)Cc1cccc(OCc2ccccc2)c1` is greater than or equal to 6.
1 (yes)

Answer whether pIC50 of `Oc1ccc(CCNCc2ccc(OCc3ccccc3)cc2)cc1` is greater than or equal to 6.
1 (yes)

Answer whether pIC50 of `c1ccc(CCNCc2ccc(OCc3ccccc3)cc2)cc1` is greater than or equal to 6.
0 (no)

###

I'd appreciate it if you could supply inhibition at 10 µM values for the items below.
# assaySystem: recombinant BChE (hBChE, E.C. 3.1.1.8) (Homo sapiens)
# Construct: purchased Sigma-Aldrich, Prague, Czech Republic
# assay: biochemical
# Type: biochemical
# conditionLabel: tested at 10 μM compound concentration; read-out: % inhibition of hBChE ± SEM
Provide only the numeric value, understood in %.

Specify reported inhibition at 10 µM for the compound shown: `c1ccc(CNCc2ccc(OCc3ccccc3)cc2)cc1`
60

Specify reported inhibition at 10 µM for the compound shown: `CCCN(CCCc1ccccc1)Cc1cccc(OCc2ccccc2)c1`
89

Specify reported inhibition at 10 µM for the compound shown: `c1ccc(COc2ccc(CNCc3ccccn3)cc2)cc1`
18

Specify reported inhibition at 10 µM for the compound shown: `COc1ccccc1CCNCc1cccc(OCc2ccccc2)c1`
94

Specify reported inhibition at 10 µM for the compound shown: `CCCN(CCCc1ccccc1)Cc1ccc(OCc2ccccc2)cc1`
93
